molecular target: BRD9 (Homo sapiens, UniProt Q9H8M2); assay: Degradation of BRD9 (IF), immunofluorescence in MV4-11 cells, 24 hours (Assay Protocol 2); type: cell-based; parameters: A suspension of MV4-11 cells (ATCC CRL-9591) was prepared; host or cells: MV4-11; conditions: MV4-11, Assay protocol 2; BRD9 degradation; read-out: Dmax
Sequence (Q9H8M2 whole entry): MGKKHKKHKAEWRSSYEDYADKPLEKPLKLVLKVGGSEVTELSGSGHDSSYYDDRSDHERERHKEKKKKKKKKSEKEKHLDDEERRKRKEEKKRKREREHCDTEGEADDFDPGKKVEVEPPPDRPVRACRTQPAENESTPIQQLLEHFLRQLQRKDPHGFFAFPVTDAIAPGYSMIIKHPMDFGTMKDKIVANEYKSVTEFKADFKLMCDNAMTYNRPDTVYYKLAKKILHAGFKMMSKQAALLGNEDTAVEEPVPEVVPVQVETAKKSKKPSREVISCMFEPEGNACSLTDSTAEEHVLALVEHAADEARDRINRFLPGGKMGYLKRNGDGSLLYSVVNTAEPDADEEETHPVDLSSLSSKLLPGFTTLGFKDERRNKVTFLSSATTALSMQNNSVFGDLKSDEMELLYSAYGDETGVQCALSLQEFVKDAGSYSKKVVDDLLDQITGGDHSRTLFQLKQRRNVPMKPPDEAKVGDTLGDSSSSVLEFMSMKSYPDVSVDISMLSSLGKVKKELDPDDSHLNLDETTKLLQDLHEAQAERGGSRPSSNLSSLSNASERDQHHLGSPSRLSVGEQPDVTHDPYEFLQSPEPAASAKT
Reported Dmax values for a set of molecules

Some entries whose results are on file:
Suppose we examine the molecule COc1cc(-c2cn(C)c(=O)c(C)c2C)cc(OC)c1CN1CCN(c2ccc(C3CCCN3C(=O)/C(C#N)=C/C(C)(C)C)cc2)CC1 (mixture of isomers) ; what Dmax value has been reported? 40 to 70%

Follow-up item: COc1cc(-c2cn(C)c(=O)c(C)c2C)cc(OC)c1CN1CCC(Oc2ccc3c(c2)[C@H](C)N(C(=O)/C(C#N)=C/C(C)(C)C)CC3)CC1 (single isomer, unassigned) > 75%

Next up:
Suppose we examine the molecule COc1cc(-c2cn(C)c(=O)c(C)c2C)cc(OC)c1C(=O)N1CCN(Cc2cccc3c2CCN(C(=O)/C(C#N)=C/c2cccc(Br)n2)C3C)CC1 (mixture of isomers) ; what Dmax value has been reported? 40 to 70%

----------
biological target: BRD9 (Homo sapiens); assay: Degradation of BRD9 (IF), immunofluorescence in MV4-11 cells, 24 hours (Assay Protocol 2); type: cell-based; set-up: A suspension of MV4-11 cells (ATCC CRL-9591) was prepared; host or cells: MV4-11; details: MV4-11, Assay protocol 2; BRD9 degradation; read-out: Dmax
RECORDED_ENDPOINT: Dmax

Some entries whose results are on file:
Suppose we examine the compound COc1cc(-c2cn(C)c(=O)c(C)c2C)cc(OC)c1CN1CCN(Cc2cccc3c2CCN(C(=O)/C(C#N)=C/C2(F)CC2)C3C)CC1 (mixture of isomers) ; what Dmax value has been reported? > 75%

Follow-up item: CCC(C)(C)/C=C(\C#N)C(=O)N1CCc2c(CN3CCN(Cc4c(OC)cc(-c5cn(C)c(=O)c(C)c5C)cc4OC)CC34CC4)cccc2C1C (mixture of isomers) > 75%

Follow-up item: COc1cc(-c2cn(C)c(=O)c(C)c2C)cc(OC)c1CN1CCCN(Cc2cccc3c2CCN(C(=O)/C(C#N)=C/C(C)(C)CF)[C@@H]3C)CC1 (single isomer, unassigned) > 75%

Follow-up item: COc1cc(-c2cn(C)c(=O)c(C)c2C)cc(OC)c1CN1CCN(Cc2cccc3c2CCN(C(=O)/C(C#N)=C/c2ncccc2C(F)(F)F)C3C)CC1 (mixture of isomers) 40 to 70%

Follow-up item: COc1cc(-c2cn(C)c(=O)c(C)c2C)cc(OC)c1CN1CCN(Cc2cccc3c2CCN(C(=O)/C(C#N)=C/C(C)(C)C)[C@H]3C(C)C)CC12CC2 (single isomer, unassigned) > 75%

Others:
Suppose we examine the compound COc1cc(-c2cn(C)c(=O)c(C)c2C)cc(OC)c1CN1CCN(Cc2cccc3c2CCN(C(=O)/C(C#N)=C\C24CC(C)(C2)C4)C3C)C2(CC2)C1 (mixture of isomers) ; what Dmax value has been reported? > 75%

Follow-up item: `COc1cc(-c2cn(C)c(=O)c3[nH]ncc23)cc(OC)c1CN1CCN(C(=O)/C(C#N)=C/C(C)(C)C)CC1` 40 to 70%
